Assay: protein stability index of a GFP-peptide fusion (yeast GPS) (PSI 1-4); higher = more stable; sorted into four equal gates, so the index is relative within each strain
Details: ubr1∆
Entry flag: true (1) if protein stability index reaches 3; false (0) if it does not.

- sequence data: "LLTNDESAFENLMGNRN [SNF12]"
  class label: "true (1)"
- sequence data: "KIDIIELQKSLSLEEVE [FAS1]"
  class label: "false (0)"
- sequence data: "QRLIFAGKQLEDGRTLS [RPS31]"
  class label: "false (0)"
- sequence data: "QEFFFHAMGGREGLIDT [RPO21]"
  class label: "false (0)"
- sequence data: "SRTLILSILNEIKKVTQ [SIN4]"
  class label: "false (0)"
- sequence data: "GSRKVAGILRGYDIFLN [SMX2]"
  class label: "false (0)"

Q: API: above_or_equal(metric=protein stability index, cutoff=3) for item INDRNDRAIRKTCQWYS [DIS3]
Ans: true (1)

Q: Another sequence to look at: DIYSHEYKVITSLQGTY [YMR129W/POM152]
Ans: false (0)

Q: Another sequence to look at: LGVIHKGNLLEGKKVMA [RPN2]
Ans: false (0)

Q: Another sequence to look at: GNMCRGGRMFAPTKTWR [RPL4A]
Ans: false (0)

Q: Another sequence to look at: LGRLVKAGKITTIEEIF [RPS2]
Ans: false (0)

Q: Another sequence to look at: LDTQLNDLRVSLNEKNA [SMC1]
Ans: true (1)

---

Test: protein stability index of a GFP-peptide fusion (yeast GPS) (PSI 1-4); higher = more stable; sorted into four equal gates, so the index is relative within each strain
Settings: doa10∆
Entries annotated with measured protein stability index

Here is how some sequences turned out for protein stability index.
- sequence data: "LSSIAERVRNFAVIYLC [DIB1]"
  protein stability index: 1.51
- sequence data: "IFKDLVTVFLFMLILAL [COB]"
  protein stability index: 1.45
- sequence data: "KRKYDEITHPPSTTDDE [SWI3]"
  protein stability index: 3.13
- sequence data: "VRKAITVLFFIGVRCYE [FAS1]"
  protein stability index: 1.47

Q: // query protein stability index value for entry ALDYLIPPPMPKNQQYR [MED7]
Ans: 2.53

Q: Another sequence to look at: MFRYKTNLYKLKEERAI [PUP3]
Ans: 2.87

---

Test: protein stability index of a GFP-peptide fusion (yeast GPS) (PSI 1-4); higher = more stable; sorted into four equal gates, so the index is relative within each strain
Conditions: pdr5∆
property label: protein stability index
The response must contain the number and no unit.

Here is how some sequences turned out for protein stability index.
- sequence data: "TNAKLPNVDLVTALEVL [RGR1]"
  assay value: 2.28
- sequence data: "DSVENSSNILEDILYYS [SRB8]"
  assay value: 2.74

Q: // query protein stability index value for entry IFERMIEKCLKASELKL [RPN2]
Ans: 2.21

Q: Another sequence to look at: NIPKPLNSYHIKNGRIY [RGR1]
Ans: 2.18

Q: Another sequence to look at: LLSDPTITIKSYHLWPS [PRP8]
Ans: 2.62

Q: Another sequence to look at: AFGVSVAFLDNDLGKFI [RPN7]
Ans: 3.16

Q: Another sequence to look at: KPQLKFKSPIDNSESHP [RRP6]
Ans: 3.06

Q: Another sequence to look at: ASVYPEYALPKTYNKLH [RPS26A]
Ans: 2.51

---

Assay: protein stability index of a GFP-peptide fusion (yeast GPS) (PSI 1-4); higher = more stable; sorted into four equal gates, so the index is relative within each strain
Conditions: san1∆
// map protein stability index onto a label; ranges lower level: < 2; middle level: ≥ 2 and < 3; upper level: ≥ 3

Observe how each entry below is paired with its result.
- sequence data: "QNVNVPSAFNFTGNNST [YOR098C/NUP1]"
  class label: "middle level"
- sequence data: "EYQSLMSLKDKLLIQID [SMC1]"
  class label: "middle level"
- sequence data: "AALIASKVYYNLGEYES [RPN2]"
  class label: "lower level"
- sequence data: "IYQHLASHNEKDQDSQI [SRP72]"
  class label: "middle level"
- sequence data: "KLLTPQDMEAAKEVYKI [GAL11]"
  class label: "upper level"

Q: In plain terms, what class is THKVTDIYSHEYKVITS [YMR129W/POM152] ?
Ans: middle level

Q: Another sequence to look at: TTLHGPGFQLPNRITLT [SRB8]
Ans: middle level

Q: Another sequence to look at: DICQIDTNAPVAATITS [SRB8]
Ans: middle level

Q: Another sequence to look at: NGFMESAIVNEDGLLEG [SOH1]
Ans: middle level

Q: Another sequence to look at: IIDEIKCIPKKGTVFQF [POP4]
Ans: lower level

Q: Another sequence to look at: LKYSKRRSLKKQGRIKN [CSN12]
Ans: upper level

Q: Another sequence to look at: GSKSDGSAATSGFEFSK [RPN1]
Ans: middle level

Q: Another sequence to look at: TEISGLKNVNKRAFENF [SMC3]
Ans: middle level

Q: Another sequence to look at: KDNECSSFEENNDLESV [RRI2]
Ans: upper level

Q: Another sequence to look at: VTDLSGKETIARVTGGM [RPS14B]
Ans: middle level

Q: Another sequence to look at: WVYKTKGDGMTSAVASI [RPN1]
Ans: middle level

Q: Another sequence to look at: SKQDLIHSLIPVAKWFV [SIN4]
Ans: middle level

Q: Another sequence to look at: NFAHSDSLSVPKVSAGD [SIR4]
Ans: middle level

Q: Another sequence to look at: VRLGEEDMIRSVFDATS [RPN1]
Ans: upper level

Q: Another sequence to look at: DVLKDGENNINFQKASA [BRN1]
Ans: upper level

---

Entries annotated with measured protein stability index
Assay: protein stability index of a GFP-peptide fusion (yeast GPS) (PSI 1-4); higher = more stable; sorted into four equal gates, so the index is relative within each strain
Conditions: doa10∆
The response must contain the number and no unit.

- sequence data: "GQQKIILSKKWGFTNLD [RPL10]"
  protein stability index: 2.68
- sequence data: "LALGSHNKLIQFGNACI [SSN2]"
  protein stability index: 2.13

Q: // query protein stability index value for entry KKRREYFPEGYNNKVGV [SIR2]
Ans: 2.42

Q: Another sequence to look at: EKLAVSALEQAIIYQRG [YGL100W/SEH1]
Ans: 2.04

Q: Another sequence to look at: PHATATEKEPVPAVVDD [SNF6]
Ans: 3.24

Q: Another sequence to look at: LQMRLKESEISHNENKM [YIL149C/MLP2]
Ans: 2.94

Q: Another sequence to look at: SPMGAQPSYNSAIIENA [GAL11]
Ans: 2.88

Q: Another sequence to look at: LGKYEFSKILPAALDGL [ESC2]
Ans: 2.28

Q: Another sequence to look at: KTKILEVAIRDVNLDVR [IRR1]
Ans: 2.58

Q: Another sequence to look at: NSKNDSANVELFKRDCN [YCS4]
Ans: 2.75

Q: Another sequence to look at: NLNRAFNGDQVIVELLP [DIS3]
Ans: 3.17

Q: Another sequence to look at: ERYSDKYLKKRKIGISI [RPC31]
Ans: 1.61

Q: Another sequence to look at: NKIINWEISNPDFLSKY [NUT1]
Ans: 2.06

Q: Another sequence to look at: DNEGVASKSKKKFNMGK [RPC53]
Ans: 3.33

Q: Another sequence to look at: MNQSSIDRGLFRSLFFR [RPB2]
Ans: 3.16

---

Experiment: protein stability index of a GFP-peptide fusion (yeast GPS) (PSI 1-4); higher = more stable; sorted into four equal gates, so the index is relative within each strain
Conditions: san1∆
Entry flag: 1 if protein stability index reaches 3; 0 if it does not.

Observe how each entry below is paired with its result.
- sequence data: "TGNGTTTTSNTSGTNIA [YOR098C/NUP1]"
  class label: 0
- sequence data: "CTKLAVYYSKRGFKVGL [SRP54]"
  class label: 0
- sequence data: "GYDKSGAHLLEFQPSGN [PRE5]"
  class label: 0
- sequence data: "LSCVKNDTISEDILQGI [NUT1]"
  class label: 0

Q: API: above_or_equal(metric=protein stability index, cutoff=3) for item VMTVPGIDPTRIYTNSF [RPO21]
Ans: 0

Q: Another sequence to look at: LQALKANDEEAYIKLLD [SNF2]
Ans: 1

Q: Another sequence to look at: NKIINWEISNPDFLSKY [NUT1]
Ans: 0

Q: Another sequence to look at: DHAIVTSPTMPDYYVSI [RPT2]
Ans: 0

Q: Another sequence to look at: IEEQGDALQDVEESSEK [DPB4]
Ans: 1

Q: Another sequence to look at: TLELESFLEGSKALNSI [RGR1]
Ans: 1

Q: Another sequence to look at: QEHTIFTQLKKNIPKTR [SNU114]
Ans: 0

Q: Another sequence to look at: FKAMEDVIAWKNVLANS [ITC1]
Ans: 1

Q: Another sequence to look at: RLRTLCRDSDDHKRFIV [DIS3]
Ans: 0

Q: Another sequence to look at: ADNSGARNLYIIAVKGS [RPL23A]
Ans: 0

Q: Another sequence to look at: SECIVSIKSKVVDHHVE [RRP42]
Ans: 0

Q: Another sequence to look at: LNEAPFPEENIIDAKTR [MCD1]
Ans: 1

Q: Another sequence to look at: DPTLTTTTSFTTSEATA [RPN4]
Ans: 0

Q: Another sequence to look at: MSQSTASLVPEGNQGSL [MED8]
Ans: 0

Q: Another sequence to look at: DVKLLNPIDIKRRFGEL [RPP1]
Ans: 0

Q: Another sequence to look at: KVSSLKMFIQRILAMCV [YCS4]
Ans: 0

Q: Another sequence to look at: LIELSGGQRSLIALSLI [SMC2]
Ans: 0

Q: Another sequence to look at: ITGNKIMRILKSNGLAP [RPS13]
Ans: 0

Q: Another sequence to look at: VFTMKELAQYMKTNVHT [RGR1]
Ans: 0

Q: Another sequence to look at: IFKDLVTVFLFMLILAL [COB]
Ans: 0

Q: Another sequence to look at: NSTLKKVESQETLNDTI [YCS4]
Ans: 0

Q: Another sequence to look at: MSQGQSKKLDVTVEQLR [NSL1]
Ans: 0

Q: Another sequence to look at: IVPLHSPFLMGHPMTKS [SEC65]
Ans: 0

Q: Another sequence to look at: INSIDTTESSDLKEGLQ [GRR1]
Ans: 1

Q: Another sequence to look at: RFPETMDETQTRAKIGG [RPO21]
Ans: 0
